B1: tRNA (parent)
chain: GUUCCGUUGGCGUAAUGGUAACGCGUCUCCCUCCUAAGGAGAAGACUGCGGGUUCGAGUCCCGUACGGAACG

Variants of: B1
assay-comment: yeast fitness relative to wild type (ratio to wild type); higher = fitter; tRNA-Arg(CCU), competitive growth, 37 C, YPD
Variants at the floor of the assay were thinned out.
value-kind: yeast fitness

{"columns": ["variant-string", "limit-qualifier", "measured-result"],
 "data": [
  ["G23A A70U", "=", 0.854],
  ["A15C U35G A57G C66G", "=", 0.56],
  ["C24U G25A C30U C46A", "=", 0.829],
  ["U2G G9C A65C", "=", 0.548],
  ["U2C G67U", "=", 0.81],
  ["C11G A40C C46U C60A", "≤", 0.5],
  ["C30G U47G A65G", "≤", 0.5],
  ["C4G A14C G25C A45U", "≤", 0.5],
  ["G44A C55U U64A A69C", "≤", 0.5],
  ["U3C G25A U59A", "=", 0.642],
  ["U47C", "=", 1]
]}

The measurements presented in this section are drawn from the RNAGym collection of RNA variant scans (doi:10.1126/science.aae0568).
